These data points were gathered from patent US20260234144A1.

- Tested on: R213X mutation in the p53 gene, HDQ-P1 cells
- testDescription: Read-through of R213X mutation in HDQ-P1 cells: truncated and full-length p53 by automated capillary electrophoresis western analysis
- Assay type: cell-based
- cond: Homo sapiens, pC100% RT: production of full-length p53, concentration giving the same response as 200 μM G418, 24 h
Here, each record is paired with measured EC (100% of 200 uM G418 response) data.

Use the examples below as a reference point.
testsmiles=CN1CCC(Nc2nc(N)c3c4c(c(-c5ccccc5)nc3n2)CCC4)CC1 observedresult="1 to 10 µM"
testsmiles=Cc1c2c(nc3nc(N[C@@H]4CCNC4)nc(N)c13)CCC2 observedresult="1 to 10 µM"
testsmiles=CNc1nc(N[C@H]2CNC[C@H]2F)nc2nc3c(c(C)c12)CCC3 observedresult="1 to 10 µM"
testsmiles=CNc1nc(N[C@H]2CNC[C@@H]2OC)nc2nc(C)cc(C)c12 observedresult="1 to 10 µM"
testsmiles=Cc1cc(C)c2c(N)nc(NC3CCN(Cc4ccc(C#N)cc4)CC3)nc2n1 observedresult="1 to 10 µM"

Ask | Recall the reported EC (100% of 200 uM G418 response) of `CCNc1nc(N[C@@H]2CCN(C)C2)nc2nc3c(c(C)c12)CCC3` when tested on R213X mutation in the p53 gene, HDQ-P1 cells.
Reply | 0.1 to 1 µM
